test: brain protein binding (brain homogenate); format: in vitro ADME, mouse; conditions: mouse, brain homogenate
Observed property: fraction unbound

Assign fraction unbound to the following record: c1ccc2c(c1)N=C(N1CCNCC1)c1ccccc1N2 [C21]
0.05

###

target: BZP; assay: NIMH PDSP radioligand binding, membranes; details: read-out: Ki
Observed property: pKi
Schema: pKi number; meaning minus log10 of the concentration expressed in molar units.

Identify the reported pKi for the following entry. "c1ccc2c(c1)N=C(N1CCNCC1)c1ccccc1N2"
5.29

###

molecular target: 5-HT4 (Homo sapiens); construct: NIMH PDSP; test: NIMH PDSP radioligand binding, membranes; details: read-out: Ki
pKi: −log10 of the molar value.
Observed property: pKi

Please supply the value of reported pKi for the item "c1ccc2c(c1)N=C(N1CCNCC1)c1ccccc1N2"
< 5.00

###

target: UniProt P25021; assay: NIMH PDSP radioligand binding, membranes; details: read-out: Ki
Sequence (P25021 whole entry): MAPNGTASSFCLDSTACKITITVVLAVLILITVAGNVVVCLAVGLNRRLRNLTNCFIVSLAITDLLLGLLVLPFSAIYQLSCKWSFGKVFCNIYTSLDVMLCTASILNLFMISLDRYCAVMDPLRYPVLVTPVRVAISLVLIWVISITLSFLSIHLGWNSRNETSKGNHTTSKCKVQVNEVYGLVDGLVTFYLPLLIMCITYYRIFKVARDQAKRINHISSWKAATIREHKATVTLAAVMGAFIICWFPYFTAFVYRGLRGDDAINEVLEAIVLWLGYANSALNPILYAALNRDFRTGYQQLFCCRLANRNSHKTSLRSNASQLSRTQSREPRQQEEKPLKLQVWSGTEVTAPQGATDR
Observed property: Ki
Express the reported value numerically, then name its unit.

Supply Ki measured with UniProt P25021 for "c1ccc2c(c1)N=C(N1CCNCC1)c1ccccc1N2" .
0.289 µM

###

Kindly state pEC50 for each of the entries shown.
Molecular target: hM1Dq (Homo sapiens, UniProt P11229, A196G/Y106C)
Sequence (P11229 1-460 Y106C/A196G): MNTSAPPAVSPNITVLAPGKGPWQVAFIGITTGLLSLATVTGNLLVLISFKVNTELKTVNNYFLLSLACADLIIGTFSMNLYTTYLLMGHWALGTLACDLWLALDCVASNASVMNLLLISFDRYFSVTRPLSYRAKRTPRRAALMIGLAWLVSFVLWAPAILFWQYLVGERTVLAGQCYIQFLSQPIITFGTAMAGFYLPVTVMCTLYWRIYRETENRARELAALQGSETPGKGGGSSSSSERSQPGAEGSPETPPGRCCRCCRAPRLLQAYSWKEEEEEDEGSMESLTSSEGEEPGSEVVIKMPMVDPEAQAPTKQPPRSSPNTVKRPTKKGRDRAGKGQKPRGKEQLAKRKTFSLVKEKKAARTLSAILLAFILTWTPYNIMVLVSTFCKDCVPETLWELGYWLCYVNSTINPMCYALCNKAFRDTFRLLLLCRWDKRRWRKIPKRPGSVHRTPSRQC
Test: IP-One accumulation assay
The value called pEC50 is obtained by taking minus log10 of the concentration in mol/L.

Check the records and state pEC50 for "CN1CCN(C2=Nc3ccccc3Cc3ccccc32)CC1"
8.38

Determine its reported pEC50: "c1ccc2c(c1)N=C(N1CCNCC1)c1ccccc1N2"
8.91

###

target: DOR (Homo sapiens, UniProt P41143); assay: NIMH PDSP radioligand binding, membranes; details: read-out: Ki
Sequence (P41143 whole entry): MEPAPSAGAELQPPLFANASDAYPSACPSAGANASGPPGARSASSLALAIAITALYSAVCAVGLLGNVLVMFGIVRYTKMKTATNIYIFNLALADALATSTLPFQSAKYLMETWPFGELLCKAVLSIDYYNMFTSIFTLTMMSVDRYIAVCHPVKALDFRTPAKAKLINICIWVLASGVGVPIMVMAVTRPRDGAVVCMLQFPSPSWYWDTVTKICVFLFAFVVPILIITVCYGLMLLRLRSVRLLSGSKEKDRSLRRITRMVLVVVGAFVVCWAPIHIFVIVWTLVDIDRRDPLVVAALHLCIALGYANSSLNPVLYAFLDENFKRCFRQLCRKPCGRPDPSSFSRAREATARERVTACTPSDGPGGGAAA
Observed property: pKi
The quantity pKi is defined as the negative base-10 logarithm of the molar concentration.

State, in one line, measured pKi of "c1ccc2c(c1)N=C(N1CCNCC1)c1ccccc1N2"
6.41

###

Target: Alpha 1B (Homo sapiens, UniProt P35368)
Construct: NIMH PDSP
Sequence (P35368 1-520): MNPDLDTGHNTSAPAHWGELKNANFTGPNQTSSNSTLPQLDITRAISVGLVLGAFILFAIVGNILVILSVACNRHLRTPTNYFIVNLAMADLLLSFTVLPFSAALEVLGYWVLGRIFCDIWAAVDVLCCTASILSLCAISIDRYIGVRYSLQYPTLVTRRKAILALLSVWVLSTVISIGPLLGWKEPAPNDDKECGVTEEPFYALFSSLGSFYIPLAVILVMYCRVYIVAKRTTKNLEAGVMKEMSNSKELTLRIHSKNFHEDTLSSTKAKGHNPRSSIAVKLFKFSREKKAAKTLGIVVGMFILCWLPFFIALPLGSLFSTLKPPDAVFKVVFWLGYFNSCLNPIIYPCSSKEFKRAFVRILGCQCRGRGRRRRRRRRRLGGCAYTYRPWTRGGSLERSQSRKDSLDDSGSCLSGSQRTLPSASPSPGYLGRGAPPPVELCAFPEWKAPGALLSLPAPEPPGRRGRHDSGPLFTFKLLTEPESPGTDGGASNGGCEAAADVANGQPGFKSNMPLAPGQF
Experiment: NIMH PDSP radioligand binding, membranes
Conditions: read-out: Ki #1-#5 (individual assays)
pKi: −log10 of the molar value.
Observed property: pKi

State, in one line, measured pKi of c1ccc2c(c1)N=C(N1CCNCC1)c1ccccc1N2 [C21]
< 5.00

###

target: Beta2 (Homo sapiens); experiment: NIMH PDSP radioligand binding, membranes; conditions: read-out: Ki
Sequence (P07550 whole entry): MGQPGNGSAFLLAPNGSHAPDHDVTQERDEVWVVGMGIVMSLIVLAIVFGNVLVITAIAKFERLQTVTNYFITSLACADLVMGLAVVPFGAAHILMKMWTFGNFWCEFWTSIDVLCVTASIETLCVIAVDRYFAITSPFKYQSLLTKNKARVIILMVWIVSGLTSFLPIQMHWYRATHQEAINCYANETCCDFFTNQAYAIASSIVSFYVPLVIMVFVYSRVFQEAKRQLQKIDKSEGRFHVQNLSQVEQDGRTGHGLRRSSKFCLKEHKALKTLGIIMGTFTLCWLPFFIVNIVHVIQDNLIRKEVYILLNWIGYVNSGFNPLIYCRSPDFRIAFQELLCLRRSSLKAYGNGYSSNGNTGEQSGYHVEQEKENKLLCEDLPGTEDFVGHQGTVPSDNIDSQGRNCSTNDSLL
Observed property: Ki

Provide one value: measured Ki of c1ccc2c(c1)N=C(N1CCNCC1)c1ccccc1N2 [C21]
> 10 µM

###

Biological target: Alpha1A (Homo sapiens)
Construct: NIMH PDSP
Sequence (P35348 whole entry): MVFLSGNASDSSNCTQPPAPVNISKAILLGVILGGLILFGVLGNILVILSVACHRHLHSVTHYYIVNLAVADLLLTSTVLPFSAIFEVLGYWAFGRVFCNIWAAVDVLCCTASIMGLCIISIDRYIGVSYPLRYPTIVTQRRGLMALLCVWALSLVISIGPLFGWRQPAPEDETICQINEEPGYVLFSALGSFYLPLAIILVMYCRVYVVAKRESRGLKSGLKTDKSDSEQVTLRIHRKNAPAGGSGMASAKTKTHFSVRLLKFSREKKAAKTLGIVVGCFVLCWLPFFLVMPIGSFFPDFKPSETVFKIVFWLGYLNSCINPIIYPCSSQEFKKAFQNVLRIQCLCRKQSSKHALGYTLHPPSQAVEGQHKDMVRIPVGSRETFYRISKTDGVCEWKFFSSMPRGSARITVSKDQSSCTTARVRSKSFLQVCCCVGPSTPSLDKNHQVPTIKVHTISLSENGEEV
Assay: NIMH PDSP radioligand binding, membranes
Conditions: read-out: Ki
Description: Radioligand binding assays with membrane preparations to determine binding affinity were carried out as outlined before[540] and by the National Institute of Mental Health’s Psychoactive Drug Screening Program (NIMH PDSP) (https://pdsp.unc.edu/), Contract # HHSN-271–2013–00017-C. The NIMH PDSP is Directed by B.L.R. at the University of North Carolina at Chapel Hill, Chapel Hill, NC, and Project Officer Jamie Driscoll at NIMH, Bethesda, MD.
pKi: −log10 of the molar value.
Observed property: pKi

Annotate the compound "c1ccc2c(c1)N=C(N1CCNCC1)c1ccccc1N2" with its measured pKi.
< 5.00

###

target: 5-HT4 (Homo sapiens, UniProt Q13639); construct: NIMH PDSP; assay: NIMH PDSP radioligand binding, membranes; details: read-out: Ki #1-#5 (individual assays)
Sequence (Q13639 whole entry, species assumed): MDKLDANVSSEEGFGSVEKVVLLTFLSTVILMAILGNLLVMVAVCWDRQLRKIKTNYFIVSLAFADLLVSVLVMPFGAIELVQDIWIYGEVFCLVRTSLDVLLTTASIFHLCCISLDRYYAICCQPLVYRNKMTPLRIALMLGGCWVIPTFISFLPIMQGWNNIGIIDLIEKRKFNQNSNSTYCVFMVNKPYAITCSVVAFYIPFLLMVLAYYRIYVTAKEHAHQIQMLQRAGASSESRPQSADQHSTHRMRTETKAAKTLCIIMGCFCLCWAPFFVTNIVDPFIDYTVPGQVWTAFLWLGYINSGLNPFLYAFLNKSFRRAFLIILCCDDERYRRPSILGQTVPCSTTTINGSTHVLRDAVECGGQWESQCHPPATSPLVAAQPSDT
pKi: −log10 of the molar value.
Observed property: pKi

Provide pKi, tested on 5-HT4 (Homo sapiens, UniProt Q13639), for "c1ccc2c(c1)N=C(N1CCNCC1)c1ccccc1N2" .
< 5.00

###

molecular target: M4 (Homo sapiens, UniProt P08173); assay: NIMH PDSP radioligand binding, membranes; conditions: read-out: Ki
Observed property: Ki (nM)
API: value field is a number in nM; no unit string.

Provide only the value of recorded Ki for c1ccc2c(c1)N=C(N1CCNCC1)c1ccccc1N2 [C21]
1880

###

target: Alpha1D (Homo sapiens, UniProt P25100); construct: NIMH PDSP; test: NIMH PDSP radioligand binding, membranes; conditions: read-out: Ki #1-#5 (individual assays)
Sequence (P25100 whole entry): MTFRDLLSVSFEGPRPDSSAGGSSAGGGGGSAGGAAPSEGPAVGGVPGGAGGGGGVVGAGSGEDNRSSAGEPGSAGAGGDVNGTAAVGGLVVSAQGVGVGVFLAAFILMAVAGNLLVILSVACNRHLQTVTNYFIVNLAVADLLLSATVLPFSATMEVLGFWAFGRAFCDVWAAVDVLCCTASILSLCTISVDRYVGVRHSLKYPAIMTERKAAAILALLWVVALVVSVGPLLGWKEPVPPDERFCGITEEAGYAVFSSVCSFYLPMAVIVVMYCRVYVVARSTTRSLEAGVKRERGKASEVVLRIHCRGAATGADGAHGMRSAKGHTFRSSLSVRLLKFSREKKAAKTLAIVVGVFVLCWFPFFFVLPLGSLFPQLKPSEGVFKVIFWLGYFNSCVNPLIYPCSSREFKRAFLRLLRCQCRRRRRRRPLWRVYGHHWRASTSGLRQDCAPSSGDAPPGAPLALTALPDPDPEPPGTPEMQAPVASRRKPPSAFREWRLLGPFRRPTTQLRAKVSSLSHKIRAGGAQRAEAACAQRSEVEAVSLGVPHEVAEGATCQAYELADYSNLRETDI
pKi: −log10 of the molar value.
Observed property: pKi

Note pKi for the compound shown: "c1ccc2c(c1)N=C(N1CCNCC1)c1ccccc1N2"
< 5.00

###

I'd appreciate it if you could supply pKi values for the items below.
Target: hM4Di (Homo sapiens, UniProt P08173, A203G/Y113C)
Sequence (P08173 1-479 Y113C/A203G): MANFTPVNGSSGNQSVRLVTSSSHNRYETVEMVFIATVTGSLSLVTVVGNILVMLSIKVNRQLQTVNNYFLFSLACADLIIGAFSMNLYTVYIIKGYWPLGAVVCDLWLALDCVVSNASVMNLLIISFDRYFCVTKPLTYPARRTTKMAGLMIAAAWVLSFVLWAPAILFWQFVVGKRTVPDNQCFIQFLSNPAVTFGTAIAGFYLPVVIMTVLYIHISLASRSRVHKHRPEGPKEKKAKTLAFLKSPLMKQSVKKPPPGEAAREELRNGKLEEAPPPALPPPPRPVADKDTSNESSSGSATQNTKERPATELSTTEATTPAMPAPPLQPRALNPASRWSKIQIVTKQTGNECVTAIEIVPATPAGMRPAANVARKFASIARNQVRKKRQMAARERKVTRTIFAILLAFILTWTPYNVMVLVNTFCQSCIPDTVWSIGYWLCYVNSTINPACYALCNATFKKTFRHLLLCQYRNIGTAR
Assay: whole-cell [3H]NMS competition binding
Answer as the number alone; pKi is minus log10 of concentration in mol/L.

Provide pKi value for the following molecule: "c1ccc2c(c1)N=C(N1CCNCC1)c1ccccc1N2"
6.75

Give recorded pKi. "CN1CCN(C2=Nc3ccccc3Cc3ccccc32)CC1"
7.17

###

target: CB2 (Homo sapiens); construct: NIMH PDSP; experiment: NIMH PDSP radioligand binding, membranes; settings: read-out: Ki
Sequence (P34972 whole entry, species assumed): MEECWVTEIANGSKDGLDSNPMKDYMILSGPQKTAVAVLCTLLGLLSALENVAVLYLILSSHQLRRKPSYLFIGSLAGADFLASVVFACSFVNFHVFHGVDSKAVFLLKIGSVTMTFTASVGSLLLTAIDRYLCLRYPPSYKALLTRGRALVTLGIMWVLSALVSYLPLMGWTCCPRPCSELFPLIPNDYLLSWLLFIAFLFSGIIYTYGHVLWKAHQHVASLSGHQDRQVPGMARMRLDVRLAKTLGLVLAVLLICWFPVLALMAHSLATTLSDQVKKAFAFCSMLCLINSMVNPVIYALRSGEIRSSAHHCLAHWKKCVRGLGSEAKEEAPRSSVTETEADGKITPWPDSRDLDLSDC
pKi: −log10 of the molar value.
Observed property: pKi

State pKi (CB2 (Homo sapiens)) of "c1ccc2c(c1)N=C(N1CCNCC1)c1ccccc1N2" .
< 5.00

###

Molecular target: Alpha 1B (Homo sapiens)
Construct: NIMH PDSP
Assay: NIMH PDSP radioligand binding, membranes
Conditions: read-out: Ki
Protocol: Radioligand binding assays with membrane preparations to determine binding affinity were carried out as outlined before[540] and by the National Institute of Mental Health’s Psychoactive Drug Screening Program (NIMH PDSP) (https://pdsp.unc.edu/), Contract # HHSN-271–2013–00017-C. The NIMH PDSP is Directed by B.L.R. at the University of North Carolina at Chapel Hill, Chapel Hill, NC, and Project Officer Jamie Driscoll at NIMH, Bethesda, MD.
Observed property: Ki

Specify measured Ki for "c1ccc2c(c1)N=C(N1CCNCC1)c1ccccc1N2" .
> 10 µM

Data credit: paper PMC6407913
